Data provenance: PubChem BioAssay (NCI)

# Test system: NCI-H522 lung
# MEASUREMENT DESCRIPTION: NCI tumour cell line growth inhibition, 48 h
REPORTED METRIC: TGI

Guide cases for TGI, answers given:
COc1ccc2ccc3oc(=O)c(C)cc3c2c1; > 100 µM
CN(C)CCN(c1ccccn1)c1ccccn1; > 100 µM

Now for another entry.
In: Return the recorded TGI value; entry: COc1nc2c(c(O)c(C)c(=O)n2OC2OCC(OC(C)=O)C(OC(C)=O)C2OC(C)=O)c(=O)n1C (stereo not drawn)
Out: > 100 µM

----------
# System: CCRF-CEM leukemia
# MEASUREMENT DESCRIPTION: NCI tumour cell line growth inhibition, 48 h
REPORTED METRIC: TGI

CN(O)C(=O)/C=C/c1ccc(OCc2cccc(Cl)c2)cc1; 65.6 µM
CNC(=O)c1ncccc1Nc1nc(Nc2cc3c(cc2OC)CCCN3C(=O)CN(C)C)nc2[nH]ccc12; 2.96 µM
COc1ccc2ccc3oc(=O)c(C)cc3c2c1; > 100 µM
Cc1nc2ccccc2nc1CC(=O)C(=O)Nc1ccc(Cl)cc1Cl; > 100 µM
O=c1c(F)cn2c(=O)n1CCCCCCCn1c(=O)c(F)cn(c1=O)CCCCCCC2; > 100 µM
COC(=O)c1ccccc1C1CN=NC12Cc1c(ccc(C)c1C)C2=O (stereo not drawn); > 100 µM

In: Quick one: give measured TGI for CC(=O)ON1CCCC(P(=O)(OCOC(=O)C(C)(C)C)OCOC(=O)C(C)(C)C)C1=O (stereo not drawn)
Out: 7.81 µM

In: Give the measured TGI for NNC(=O)C(=O)N/N=C1/CCCC1C(=O)CCC(=O)Nc1ccc(Cl)cc1 (stereo not drawn)
Out: > 100 µM
